Some binders, each annotated with its measured log10 of Kd.
molecular target: recombinant human ICAM1 (human, UniProt P05362 28-480, limits assumed); experiment: SPR (Biacore 8K), antibody captured, antigen injected
Sequence (P05362 28-480 limits assumed): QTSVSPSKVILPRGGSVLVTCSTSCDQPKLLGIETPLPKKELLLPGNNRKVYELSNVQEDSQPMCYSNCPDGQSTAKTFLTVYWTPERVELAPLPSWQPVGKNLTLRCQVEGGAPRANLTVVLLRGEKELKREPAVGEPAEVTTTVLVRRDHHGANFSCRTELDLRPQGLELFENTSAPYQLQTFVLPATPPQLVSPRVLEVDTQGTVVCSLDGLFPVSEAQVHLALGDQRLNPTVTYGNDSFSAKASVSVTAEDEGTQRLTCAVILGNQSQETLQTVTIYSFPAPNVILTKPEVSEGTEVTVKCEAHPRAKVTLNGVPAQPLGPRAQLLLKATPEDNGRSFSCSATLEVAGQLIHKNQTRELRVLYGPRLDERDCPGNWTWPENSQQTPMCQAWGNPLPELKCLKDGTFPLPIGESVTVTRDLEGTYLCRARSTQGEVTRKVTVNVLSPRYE
A difference of one corresponds to tenfold Kd; all values are log10 with Kd in nM.

- 4H5 (antibody, human IgG1, kappa, V domains shown, Rabbit-human chimeric anti-ICAM1: rabbit VH and VL on human IgG1 and kappa constant regions) VH: QSVEESGGRLVTPGTPLTLTCTASGFSLSNYYMSWVRQAPGKGLEWIGIISDSGTTYYASWAKGRFTISKTSTTVDLKITSPTTEDTATYFCARDWSYDSSSGYYYYDMDLWGPGTLVTVSA VL: GYDMTQTPASVEVAVGGTVTIKCQASQSINSWLVWFQHKPGQPPKRLIYKASTLASGVSSRFKGSGSGTHFTLTISGVESADAATYYCQQGYSRSDGEHVFGGGTEVVVKR: 0.53
- 2E3 (antibody, human IgG1, kappa, V domains shown, Rabbit-human chimeric anti-ICAM1: rabbit VH and VL on human IgG1 and kappa constant regions) VH: QSVEESGGGLVKPGGTLTLTCTVSGFSLSSYAMGWVRQAPGKGLEYIGIIGSSGSTYYASWAKGRFTISKTSTTVDLKITSPTTEDTATYFCVRDPYDSFGDGYRLWGPGTLVTVSS VL: AYDMTQTPASVEVAVGGTVTIKCQASENIYRYLLWYQQKLGQRPSLLIYDASKLASGVPSRFKGSGSGTEFTLTISGVQSDDAATYYCQQAYSSSNVDNAFGGGTEVVVKR: -0.19
- 16E4 (antibody, human IgG1, kappa, V domains shown, Rabbit-human chimeric anti-ICAM1: rabbit VH and VL on human IgG1 and kappa constant regions) VH: QSVEESGGRLVTPGTPLTLTCTVSGFSLSSHAMGWVRQAPGKGLQYIGIIGSSGSTYYASWAKGRFTISKTSTTVDLRLTSPTTEDTATYFCVRDPYDSFGDAYRLWGPGTLVTVSS VL: AYDMTQTPASVEVAVGGTVTIKCQASQSIYSYCSWYQQKPGQRPKFLIYDASKLASGVPSRFKGSGSGTEFTLTISGMQSDDAATYYCQQAYSSSNVDNAFGGGTEVVVKR: -0.24
- 6G8 (antibody, human IgG1, kappa, V domains shown, Rabbit-human chimeric anti-ICAM1: rabbit VH and VL on human IgG1 and kappa constant regions) VH: QSVEESGGGLVKPGGTLTLTCTVSGFSLSSYAMGWVRQAPGKGLEYIGIIGSSGSTYYATWAKGRFTISKTSTTVDLKITSPTTEDTATYFCVRDPYDSYDAAYRLWGPGTLVTVSS VL: AYDMSQTPASVEVAVGGTVTIKCQASQSIYSYLSWYQQKPGQRPKLLIYDASKLASGVPSRFTGSGSGTEFTLTISGVQSDDAATYYCQQAYSSSNVDNVFGGGTEVVVKR: 0.23
- 3D8 (antibody, human IgG1, kappa, V domains shown, Rabbit-human chimeric anti-ICAM1: rabbit VH and VL on human IgG1 and kappa constant regions) VH: QSLEESGGDLVKPGASLTLTCTASGFSFSSSYWMCWVRQAPGKGLEWIACIDGGSAGYNYYATWAKGRFTISKTSSTTVTLQMTSLTAADRATYFCARGPGSSYNLWGPGTLVTVSS VL: DIVMTQTPASVEAAVGGTVTIKCQASQSISSYLSWYQQKPGQPPKLLIYRASTLASGVPSRFKGSGSGTEFTLTISDLESADAATYYCQSYVFGSSRSYDNAFGGGTEVVVKR: 1.23

Then there is this binder:
Q: Please supply the value of reported log10 of Kd for the item 8E5 (antibody, human IgG1, kappa, V domains shown, Rabbit-human chimeric anti-ICAM1: rabbit VH and VL on human IgG1 and kappa constant regions) VH: QSLEESGGRLVTPGTPLTLTCTVSGFSLSNYAMNWVRQAPGKGLEWIGYISTRGSAYYASWAKGRFTISKTSTTVDLKMTSPTTEDTATYFCARGDLVGGGYIRGSFDPWGPGTLVTVSS VL: AQVLTQTPSPVSAAVGGTVTINCQSSQSVVSDKLLSWFQQKPGQPPKLLIYGASTLASGVPSRFKGSGSGTQFTLTISDVQSDDAATYYCAGAYSTDSDIRAFGGGTEVVVKR
Result: 1.39
